Tested on: human APOE RNA
Assay: Dose-dependent inhibition of human APOE RNA in HepG2 cells, electroporation, 50,000 cells per well, RT-PCR normalized to GAPDH (Example 4, Tables 8-10)
Type: cell-based
Conditions: 512 nM; HepG2, electroporation, 24-hour treatment
Strand notation (5' to 3'): a small letter for the sugar, then the base; units joined by * are phosphorothioate-linked, units joined directly phosphodiester-linked; [ ] holds rarer units or linkages, { } end groups; capitals alone tell only the bases. [ms] = mesyl phosphoramidate linkage; k = constrained ethyl (cEt); [5mC] = 5-methylcytosine; d = 2'-deoxy (DNA)
Short version: APOE RNA (% UTC) at least 60 % UTC is criterion met, less is criterion not met.

{"columns": ["substance", "category"],
 "data": [
  ["1746797 (k[5mC]*kT*dT[ms]dG[ms]dG[ms]kT*dG[ms]dA[ms]dA[ms]dT*d[5mC]*dT*dT*dT*dA[ms]dT*kT*dA[ms]kA*kA; antisense) [Compound 1746797]", "criterion met"],
  ["1746787 (k[5mC]*kT*dT[ms]dG[ms]dG[ms]kT*dG[ms]dA[ms]dA[ms]dT*d[5mC]*dT*dT*dT*dA[ms]dT*kT*kA*dA[ms]kA; antisense) [Compound 1746787]", "criterion met"],
  ["1746789 (k[5mC]*dT[ms]kT*dG[ms]kG*dT[ms]dG[ms]dA[ms]dA[ms]dT*d[5mC]*dT*dT*dT*dA[ms]dT*kT*kA*dA[ms]kA; antisense) [Compound 1746789]", "criterion met"],
  ["1746799 (k[5mC]*dT[ms]kT*dG[ms]kG*dT[ms]dG[ms]dA[ms]dA[ms]dT*d[5mC]*dT*dT*dT*dA[ms]dT*kT*dA[ms]kA*kA; antisense) [Compound 1746799]", "criterion met"],
  ["1746791 (k[5mC]*dT[ms]dT[ms]kG*kG*dT[ms]dG[ms]dA[ms]dA[ms]dT*d[5mC]*dT*dT*dT*dA[ms]dT*kT*kA*dA[ms]kA; antisense) [Compound 1746791]", "criterion met"],
  ["1746790 (k[5mC]*dT[ms]kT*dG[ms]dG[ms]kT*dG[ms]dA[ms]dA[ms]dT*d[5mC]*dT*dT*dT*dA[ms]dT*kT*kA*dA[ms]kA; antisense) [Compound 1746790]", "criterion met"],
  ["1747052 (k[5mC]*dT[ms]kT*kG*dG[ms]kT*dG[ms]dA[ms]dA[ms]dT*d[5mC]*dT*dT*dT*dA[ms]dT*kT*dA[ms]dA[ms]kA; antisense) [Compound 1747052]", "criterion met"],
  ["1753989 (k[5mC]*dT[ms]kT*dG[ms]kG*dT*dG[ms]dA[ms]dA[ms]dT*d[5mC]*dT*dT*dT*dA[ms]kT*dT[ms]kA*dA[ms]kA; antisense) [Compound 1753989]", "criterion met"],
  ["1746804 (k[5mC]*kT*kT*dG[ms]dG[ms]dT[ms]dG[ms]dA[ms]dA[ms]dT*d[5mC]*dT*dT*dT*dA[ms]dT*dT[ms]kA*kA*kA; antisense) [Compound 1746804]", "criterion not met"],
  ["1746801 (k[5mC]*dT[ms]dT[ms]kG*kG*dT[ms]dG[ms]dA[ms]dA[ms]dT*d[5mC]*dT*dT*dT*dA[ms]dT*kT*dA[ms]kA*kA; antisense) [Compound 1746801]", "criterion not met"],
  ["1746811 (k[5mC]*dT[ms]dT[ms]kG*kG*dT[ms]dG[ms]dA[ms]dA[ms]dT*d[5mC]*dT*dT*dT*dA[ms]dT*dT[ms]kA*kA*kA; antisense) [Compound 1746811]", "criterion not met"],
  ["1746805 (k[5mC]*kT*dT[ms]kG*dG[ms]dT[ms]dG[ms]dA[ms]dA[ms]dT*d[5mC]*dT*dT*dT*dA[ms]dT*dT[ms]kA*kA*kA; antisense) [Compound 1746805]", "criterion met"],
  ["1746796 (k[5mC]*kT*dT[ms]dG[ms]kG*dT[ms]dG[ms]dA[ms]dA[ms]dT*d[5mC]*dT*dT*dT*dA[ms]dT*kT*dA[ms]kA*kA; antisense) [Compound 1746796]", "criterion met"],
  ["1746807 (k[5mC]*kT*dT[ms]dG[ms]dG[ms]kT*dG[ms]dA[ms]dA[ms]dT*d[5mC]*dT*dT*dT*dA[ms]dT*dT[ms]kA*kA*kA; antisense) [Compound 1746807]", "criterion met"],
  ["1746813 (k[5mC]*dT[ms]dT[ms]kG*dG[ms]kT*dG[ms]dA[ms]dA[ms]dT*d[5mC]*dT*dT*dT*dA[ms]dT*dT[ms]kA*kA*kA; antisense) [Compound 1746813]", "criterion met"],
  ["1746802 (k[5mC]*dT[ms]dT[ms]dG[ms]kG*kT*dG[ms]dA[ms]dA[ms]dT*d[5mC]*dT*dT*dT*dA[ms]dT*kT*dA[ms]kA*kA; antisense) [Compound 1746802]", "criterion not met"],
  ["1747050 (k[5mC]*kT*kT*dG[ms]dG[ms]kT*dG[ms]dA[ms]dA[ms]dT*d[5mC]*dT*dT*dT*dA[ms]dT*kT*dA[ms]dA[ms]kA; antisense) [Compound 1747050]", "criterion met"],
  ["1746809 (k[5mC]*dT[ms]kT*dG[ms]kG*dT[ms]dG[ms]dA[ms]dA[ms]dT*d[5mC]*dT*dT*dT*dA[ms]dT*dT[ms]kA*kA*kA; antisense) [Compound 1746809]", "criterion not met"],
  ["1746786 (k[5mC]*kT*dT[ms]dG[ms]kG*dT[ms]dG[ms]dA[ms]dA[ms]dT*d[5mC]*dT*dT*dT*dA[ms]dT*kT*kA*dA[ms]kA; antisense) [Compound 1746786]", "criterion met"]
]}
